// data source = patent US5919771A

System: Staphylococcus aureus 446
Test: MIC, standard broth micro-dilution assay, SA 446
Type: cell-based
Experimental: The antibacterial efficacy of the present compounds is illustrated by Table II. The minimal inhibitory concentrations (MICs) were determined using a standard broth micro-dilution assay.
Let's look at some molecules and their measured Minimal Inhibitory Concentration (MIC) SA 446.
MEASURE: Minimal Inhibitory Concentration (MIC) SA 446

[
  {
    "MOLECULE": "CC(C)CC(C(=O)NC1C(=O)NC(CC(N)=O)C(=O)NC2C(=O)NC3C(=O)NC(C(=O)NC(C(=O)O)c4cc(O)cc(O)c4-c4cc3ccc4O)C(OC3CC(C)(N)C(O)C(C)O3)c3ccc(c(Cl)c3)Oc3cc2cc(c3OC2OC(CO)C(O)C(O)C2OC2CC(C)(NCc3ccc(Oc4ccccc4)cc3)C(O)C(C)O2)Oc2ccc(cc2Cl)C1O)N(C)C(=S)Nc1ccc(Cl)cc1 (stereo not drawn)",
    "VALUE REPORTED": 4
  },
  {
    "MOLECULE": "CCCCc1ccc(NC(=S)N(C)C(CC(C)C)C(=O)NC2C(=O)NC(CC(N)=O)C(=O)NC3C(=O)NC4C(=O)NC(C(=O)NC(C(=O)O)c5cc(O)cc(O)c5-c5cc4ccc5O)C(OC4CC(C)(N)C(O)C(C)O4)c4ccc(c(Cl)c4)Oc4cc3cc(c4OC3OC(CO)C(O)C(O)C3OC3CC(C)(N)C(O)C(C)O3)Oc3ccc(cc3Cl)C2O)cc1 (stereo not drawn)",
    "VALUE REPORTED": 2
  },
  {
    "MOLECULE": "COc1ccc(NC(=S)N(C)C(CC(C)C)C(=O)NC2C(=O)NC(CC(N)=O)C(=O)NC3C(=O)NC4C(=O)NC(C(=O)NC(C(=O)O)c5cc(O)cc(O)c5-c5cc4ccc5O)C(OC4CC(C)(N)C(O)C(C)O4)c4ccc(c(Cl)c4)Oc4cc3cc(c4OC3OC(CO)C(O)C(O)C3OC3CC(C)(NCc4ccc(Cl)cc4)C(O)C(C)O3)Oc3ccc(cc3Cl)C2O)cc1 (stereo not drawn)",
    "VALUE REPORTED": 4
  }
]

----------
System: Streptococcus pyogenes C203
Assay: MIC, standard broth micro-dilution assay, SPY C203
Assay type: cell-based
MEASURE: Minimal Inhibitory Concentration (MIC) SPY C203

[
  {
    "COMPOUND": "CC(C)C[C@H](C(=O)N[C@H]1C(=O)N[C@@H](CC(N)=O)C(=O)N[C@H]2C(=O)N[C@H]3C(=O)N[C@H](C(=O)N[C@H](C(=O)O)c4cc(O)cc(O)c4-c4cc3ccc4O)[C@H](O[C@H]3C[C@](C)(N)[C@@H](O)[C@H](C)O3)c3ccc(c(Cl)c3)Oc3cc2cc(c3O[C@@H]2O[C@H](CO)[C@@H](O)[C@H](O)[C@H]2O[C@H]2C[C@](C)(NCc3ccc(-c4ccccc4)cc3)[C@@H](O)[C@H](C)O2)Oc2ccc(cc2Cl)[C@H]1O)N(C)C(=S)Nc1ccccc1 [Example 4]",
    "TGT": "Streptococcus pyogenes C203",
    "VALUE REPORTED": "≤ 0.06"
  },
  {
    "COMPOUND": "COc1ccc(NC(=S)N(C)C(CC(C)C)C(=O)NC2C(=O)NC(CC(N)=O)C(=O)NC3C(=O)NC4C(=O)NC(C(=O)NC(C(=O)O)c5cc(O)cc(O)c5-c5cc4ccc5O)C(OC4CC(C)(N)C(O)C(C)O4)c4ccc(c(Cl)c4)Oc4cc3cc(c4OC3OC(CO)C(O)C(O)C3OC3CC(C)(NCc4ccc(Cl)cc4)C(O)C(C)O3)Oc3ccc(cc3Cl)C2O)cc1 (centres unmarked) [Example 13]",
    "TGT": "Streptococcus pyogenes C203",
    "VALUE REPORTED": "≤ 0.06"
  },
  {
    "COMPOUND": "CC(C)CC(C(=O)NC1C(=O)NC(CC(N)=O)C(=O)NC2C(=O)NC3C(=O)NC(C(=O)NC(C(=O)O)c4cc(O)cc(O)c4-c4cc3ccc4O)C(OC3CC(C)(N)C(O)C(C)O3)c3ccc(c(Cl)c3)Oc3cc2cc(c3OC2OC(CO)C(O)C(O)C2OC2CC(C)(N)C(O)C(C)O2)Oc2ccc(cc2Cl)C1O)N(C)C(=S)Nc1ccccc1 (centres unmarked) [Example 1, N^LEU -(PHENYLTHIOCARBAMOYL)A82846B]",
    "TGT": "Streptococcus pyogenes C203",
    "VALUE REPORTED": 2
  },
  {
    "COMPOUND": "CC(C)CC(C(=O)NC1C(=O)NC(CC(N)=O)C(=O)NC2C(=O)NC3C(=O)NC(C(=O)NC(C(=O)O)c4cc(O)cc(O)c4-c4cc3ccc4O)C(OC3CC(C)(N)C(O)C(C)O3)c3ccc(c(Cl)c3)Oc3cc2cc(c3OC2OC(CO)C(O)C(O)C2OC2CC(C)(N)C(O)C(C)O2)Oc2ccc(cc2Cl)C1O)N(C)C(=S)Nc1ccc(OCc2ccccc2)cc1 (centres unmarked) [Example 16]",
    "TGT": "Streptococcus pyogenes C203",
    "VALUE REPORTED": "≤ 0.06"
  },
  {
    "COMPOUND": "CC(C)CC(C(=O)NC1C(=O)NC(CC(N)=O)C(=O)NC2C(=O)NC3C(=O)NC(C(=O)NC(C(=O)O)c4cc(O)cc(O)c4-c4cc3ccc4O)C(OC3CC(C)(N)C(O)C(C)O3)c3ccc(c(Cl)c3)Oc3cc2cc(c3OC2OC(CO)C(O)C(O)C2OC2CC(C)(N)C(O)C(C)O2)Oc2ccc(cc2Cl)C1O)N(C)C(=S)Nc1cccc2ccccc12 (centres unmarked) [Example 5, N^LEU -(1-NAPHTHYLTHIOCARBAMOYL)A82846B]",
    "TGT": "Streptococcus pyogenes C203",
    "VALUE REPORTED": 0.5
  }
]

----------
System: Streptococcus pyogenes C203
Experiment: MIC, standard broth micro-dilution assay, SPY C203
Format: cell-based
MEASURE: Minimal Inhibitory Concentration (MIC) SPY C203

[
  {
    "MOLECULE": "CC(C)C[C@H](C(=O)N[C@H]1C(=O)N[C@@H](CC(N)=O)C(=O)N[C@H]2C(=O)N[C@H]3C(=O)N[C@H](C(=O)N[C@H](C(=O)O)c4cc(O)cc(O)c4-c4cc3ccc4O)[C@H](O[C@H]3C[C@](C)(N)[C@@H](O)[C@H](C)O3)c3ccc(c(Cl)c3)Oc3cc2cc(c3O[C@@H]2O[C@H](CO)[C@@H](O)[C@H](O)[C@H]2O[C@H]2C[C@](C)(NCc3ccc(Cl)cc3)[C@@H](O)[C@H](C)O2)Oc2ccc(cc2Cl)[C@H]1O)N(C)C(=S)Nc1ccccc1 [Example 2]",
    "COMPARISON SYMBOL": "=",
    "VALUE REPORTED": 0.125
  },
  {
    "MOLECULE": "CC(C)CC(C(=O)NC1C(=O)NC(CC(N)=O)C(=O)NC2C(=O)NC3C(=O)NC(C(=O)NC(C(=O)O)c4cc(O)cc(O)c4-c4cc3ccc4O)C(OC3CC(C)(N)C(O)C(C)O3)c3ccc(c(Cl)c3)Oc3cc2cc(c3OC2OC(CO)C(O)C(O)C2OC2CC(C)(NCc3ccc(Oc4ccccc4)cc3)C(O)C(C)O2)Oc2ccc(cc2Cl)C1O)N(C)C(=S)Nc1cccc2ccccc12 (stereo not drawn) [Example 7]",
    "COMPARISON SYMBOL": "=",
    "VALUE REPORTED": 0.25
  },
  {
    "MOLECULE": "CC(C)CC(C(=O)NC1C(=O)NC(CC(N)=O)C(=O)NC2C(=O)NC3C(=O)NC(C(=O)NC(C(=O)O)c4cc(O)cc(O)c4-c4cc3ccc4O)C(OC3CC(C)(N)C(O)C(C)O3)c3ccc(c(Cl)c3)Oc3cc2cc(c3OC2OC(CO)C(O)C(O)C2OC2CC(C)(NCc3ccc(Oc4ccccc4)cc3)C(O)C(C)O2)Oc2ccc(cc2Cl)C1O)N(C)C(=S)Nc1ccc(N(C)C)cc1 (stereo not drawn) [Example 19]",
    "COMPARISON SYMBOL": "=",
    "VALUE REPORTED": 0.25
  },
  {
    "MOLECULE": "CC(C)CC(C(=O)NC1C(=O)NC(CC(N)=O)C(=O)NC2C(=O)NC3C(=O)NC(C(=O)NC(C(=O)O)c4cc(O)cc(O)c4-c4cc3ccc4O)C(OC3CC(C)(N)C(O)C(C)O3)c3ccc(c(Cl)c3)Oc3cc2cc(c3OC2OC(CO)C(O)C(O)C2OC2CC(C)(NCc3ccc(Oc4ccccc4)cc3)C(O)C(C)O2)Oc2ccc(cc2Cl)C1O)N(C)C(=S)Nc1ccc(OCc2ccccc2)cc1 (stereo not drawn) [Example 20]",
    "COMPARISON SYMBOL": "≤",
    "VALUE REPORTED": 0.06
  },
  {
    "MOLECULE": "CCCCc1ccc(NC(=S)N(C)C(CC(C)C)C(=O)NC2C(=O)NC(CC(N)=O)C(=O)NC3C(=O)NC4C(=O)NC(C(=O)NC(C(=O)O)c5cc(O)cc(O)c5-c5cc4ccc5O)C(OC4CC(C)(N)C(O)C(C)O4)c4ccc(c(Cl)c4)Oc4cc3cc(c4OC3OC(CO)C(O)C(O)C3OC3CC(C)(N)C(O)C(C)O3)Oc3ccc(cc3Cl)C2O)cc1 (stereo not drawn) [Example 17]",
    "COMPARISON SYMBOL": "=",
    "VALUE REPORTED": 0.25
  }
]
